These entries and their values trace back to ChEMBL document CHEMBL5058577.

- Tested on: U2OS
- TEST_SUMMARY: Multiplex assay against U2OS
- Assay type: toxicity, cell-based
- EXPERIMENTAL_CONTEXT: human, 12 h, 10 µM, compound concentration 10 uM, replicate 2
PROPERTY: Population Normal (%)

1) CCc1nn2c(C)cc(C)nc2c1Cc1ccc(-c2nnc(C3CCNCC3)o2)cc1 ... 97
2) S=C(NCCCc1c[nH]cn1)NCCCN(Cc1ccc(Cl)c(Cl)c1)c1ccc(Br)cn1 ... 100
3) COCCCN1CCC(NC(=O)c2cc(Cl)c(N)c3c2OCC3)CC1 [PRUCALOPRIDE] ... 97
4) Nc1nc(CC(=O)Nc2ccc(CCNC[C@H](O)c3ccccc3)cc2)cs1 [MIRABEGRON] ... 99
5) Cc1nn(C)c2nc(NNC(=O)Nc3cc(Cl)nc(Cl)c3)cc(C(C)C)c12 ... 95
6) COc1cc(C(=O)N2CC[C@@H](O)[C@@H](N)C2)cc2nc(-c3cc4ccccc4n3CC3CC3)n(C)c12.Cl ... 94
7) COc1cc2nc(N3CCN(C(=O)c4ccco4)CC3)nc(N)c2cc1OC.Cl [PRAZOSIN HYDROCHLORIDE] ... 99
8) C[C@@H]1CC(=O)Nc2cccc(-c3ccc4c(c3)c(-c3cnn(C)c3)nn4C)c2N1 ... 98
9) CC(C)C[C@H](CO)Nc1nc(S[C@@H](C)c2ccccc2)nc2nc(N)sc12 [AZD-8797] ... 97
